src = patent US20230129359A1

Parameter Ki: see the listing below.
Target: human M4 receptor (Homo sapiens)
Construct: expressed in transfected cells; host or cells: CHO cells
Sequence (P08173 1-479): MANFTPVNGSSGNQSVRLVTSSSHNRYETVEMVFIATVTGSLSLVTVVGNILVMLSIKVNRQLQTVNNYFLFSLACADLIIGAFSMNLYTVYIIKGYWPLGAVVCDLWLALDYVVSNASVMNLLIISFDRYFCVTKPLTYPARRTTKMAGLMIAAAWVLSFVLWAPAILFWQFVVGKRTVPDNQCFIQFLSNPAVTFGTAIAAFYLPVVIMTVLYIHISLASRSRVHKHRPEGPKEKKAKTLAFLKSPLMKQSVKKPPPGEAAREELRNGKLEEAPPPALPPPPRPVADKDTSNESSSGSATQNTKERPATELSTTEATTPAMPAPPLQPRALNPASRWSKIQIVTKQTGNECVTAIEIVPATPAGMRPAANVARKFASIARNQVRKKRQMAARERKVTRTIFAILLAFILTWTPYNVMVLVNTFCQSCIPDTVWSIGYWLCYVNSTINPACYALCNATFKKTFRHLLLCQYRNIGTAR
Test: Radioligand ([3H]N-methylscopolamine) binding assay, membranes from CHO cells expressing human M4 receptor
Conditions: Ki against human M4 receptor; membranes from CHO cells; tritiated N-methylscopolamine 1.5 nM; read-out: K

[[record]]
structure_notation = "C[C@@H]1CN(c2nc3ccc(C(F)(F)F)cc3s2)C[C@@H](C)N1C(=O)OC1CC2(C1)CN(Cc1ccc(F)cc1)C2"
measurement_target = "human M4 receptor (Homo sapiens)"
parameter = "Ki"
recorded_measurement = "10 to 100 nM"

[[record]]
structure_notation = "C[C@@H]1CN(c2nc3ccc(F)cc3o2)C[C@H](C)N1C(=O)OC1CC2(C1)CN(Cc1ccccc1)C2"
measurement_target = "human M4 receptor (Homo sapiens)"
parameter = "Ki"
recorded_measurement = "10 to 100 nM"

[[record]]
structure_notation = "C[C@@H]1CN(c2cnc(C(F)(F)F)cn2)CCN1C(=O)NC1CC2(C1)CN(Cc1ccccc1)C2"
measurement_target = "human M4 receptor (Homo sapiens)"
parameter = "Ki"
recorded_measurement = "100 to 1000 nM"

[[record]]
structure_notation = "C[C@@H]1CN(c2ncc(C(F)(F)F)cn2)CCN1C(=O)NC1CC2(C1)CN(Cc1ccc(F)cc1)C2"
measurement_target = "human M4 receptor (Homo sapiens)"
parameter = "Ki"
recorded_measurement = "100 to 1000 nM"


Given the entry C[C@@H]1CN(c2ncc(Cl)cn2)C[C@H](C)N1C(=O)OC1CC2(C1)CN(Cc1ccccc1)C2 , report its measured Ki. 10 to 100 nM

Given the entry C[C@@H]1CN(c2nc3cc(C(F)(F)F)cnc3s2)C[C@H](C)N1C(=O)OC1CC2(C1)CN(Cc1ccccc1)C2 , report its measured Ki. < 10 nM

Given the entry C[C@@H]1CN(c2ncc(C(F)F)cn2)C[C@H](C)N1C(=O)OC1CC2(C1)CN(Cc1ccc(F)cc1)C2 , report its measured Ki. 10 to 100 nM
